Values from ChEMBL document CHEMBL4828767

System: RAC-alpha serine/threonine-protein kinase (Homo sapiens, UniProt P31749)
Sequence (P31749 whole entry): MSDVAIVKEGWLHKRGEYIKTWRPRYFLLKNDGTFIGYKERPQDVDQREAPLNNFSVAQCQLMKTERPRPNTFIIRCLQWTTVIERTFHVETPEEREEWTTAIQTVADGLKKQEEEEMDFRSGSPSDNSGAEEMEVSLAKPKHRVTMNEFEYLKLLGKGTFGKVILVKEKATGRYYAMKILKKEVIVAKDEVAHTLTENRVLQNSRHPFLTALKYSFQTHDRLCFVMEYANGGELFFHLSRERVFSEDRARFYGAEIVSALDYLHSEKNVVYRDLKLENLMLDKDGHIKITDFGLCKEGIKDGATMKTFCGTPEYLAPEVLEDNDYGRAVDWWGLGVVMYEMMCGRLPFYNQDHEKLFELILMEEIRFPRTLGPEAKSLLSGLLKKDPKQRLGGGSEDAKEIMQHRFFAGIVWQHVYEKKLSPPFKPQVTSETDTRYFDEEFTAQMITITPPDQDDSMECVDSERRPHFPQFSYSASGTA
pIC50: −log10 of the molar value.
Everything with pIC50 lower than 8 is F; everything else, including exactly 8, is T.

Input line: Textbook exercise: given the entry NC(=O)c1cccc2c(N[C@H](CN3CCC3)c3ccc(F)c(F)c3)ncnc12 , state whether its pIC50 is greater than or equal to 8.
Output line: T

Input line: Please tell me: is the compound CNC[C@@H](Nc1ncnc2c(C(N)=O)cccc12)c1cccc(F)c1 at or over 8 in terms of pIC50?
Output line: T

Input line: Can NC(=O)c1cccc2c(N[C@H](CN3CCCC3)c3cccc(F)c3)ncnc12 be said to have pIC50 at or above 8?
Output line: F

Input line: API: above_or_equal(metric=pIC50, cutoff=8) for item CCc1nc(N[C@H](CNC)c2cccc(F)c2)c2cccc(C(N)=O)c2n1
Output line: F

Input line: Answer whether pIC50 of NC(=O)c1cccc2c(NCc3ccc4c(c3)OCO4)ncnc12 is greater than or equal to 8.
Output line: F

Input line: Could you verify whether the entry NC(=O)c1cccc2c(N[C@H](CN3CCC3)c3ccc(Cl)c(C(F)(F)F)c3)ncnc12 [RUPITASERTIB] shows pIC50 of no less than 8?
Output line: T
